The origin of these recorded values is ChEMBL document CHEMBL4321878.

Test: Apparent permeability across absorptive direction in Sprague-Dawley rat ileum at 50 uM measured after 20 mins LC-MS/MS analysis
Type: ADME, tissue-based
In this section we review reported Papp A→B at 20 min, 50 µM values for a set of compounds.
MEASUREMENT KIND: Papp A→B at 20 min, 50 µM (×10⁻⁶ cm/s)

- COCCc1ccc(OCC(O)CNC(C)C)cc1 (configuration not stated): 14
- C#CCN1CCC(/C=C\c2cccc(F)c2)CC1.Cl: 10.8

----------
Target: Amine oxidase [flavin-containing] A (Homo sapiens, UniProt P21397)
Sequence (P21397 whole entry): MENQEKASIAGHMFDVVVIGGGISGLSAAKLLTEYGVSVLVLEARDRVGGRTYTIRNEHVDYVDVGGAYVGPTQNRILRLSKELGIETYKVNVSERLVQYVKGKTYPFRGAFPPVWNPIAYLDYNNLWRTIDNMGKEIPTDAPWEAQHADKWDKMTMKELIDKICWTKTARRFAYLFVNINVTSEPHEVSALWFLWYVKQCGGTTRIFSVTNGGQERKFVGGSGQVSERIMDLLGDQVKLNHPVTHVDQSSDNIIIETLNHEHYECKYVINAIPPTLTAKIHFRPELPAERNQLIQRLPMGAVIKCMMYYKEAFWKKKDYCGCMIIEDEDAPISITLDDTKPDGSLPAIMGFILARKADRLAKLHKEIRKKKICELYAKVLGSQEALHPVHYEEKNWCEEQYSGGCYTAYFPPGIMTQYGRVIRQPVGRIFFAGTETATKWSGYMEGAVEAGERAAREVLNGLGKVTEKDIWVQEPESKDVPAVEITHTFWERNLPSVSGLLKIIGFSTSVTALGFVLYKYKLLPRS
Conditions: 20 min
MEASUREMENT KIND: activity at 100 µM (%)

- C#CCN1CCC(CCc2ccc(Cl)cc2)CC1: 67.7
- C#CCN1CCC(/C=C/c2ccc(C(N)=O)cc2)CC1: 64.8
- C#CCN1CCC(CCc2cccc(C(F)(F)F)c2)CC1: 71.6
- C#CCN1CCCC(/C=C/c2cc(F)c(F)cc2F)C1 (racemic): 102
- C#CCN1CCC(CCc2ccc(O)cc2)CC1: 67.7
- C#CCN1CCC(/C=C\c2ccc(C(F)(F)F)cc2)CC1: 80.1

----------
Target: Amine oxidase [flavin-containing] A (Homo sapiens, UniProt P21397)
Conditions: 20 min
Class assignment keyed on activity at 100 µM, ranges class 0: < 60%; class 1: ≥ 60% and < 70%; class 2: ≥ 70%

- C#CCN1CCC(CCc2cc(F)c(F)cc2F)CC1: class 1
- C#CCN1CCC(/C=C\c2ccc(C(N)=O)cc2)CC1: class 2
- C#CCN1CCC(/C=C/c2ccc(Br)cc2)CC1: class 0
- C#CCN1CCC(/C=C/c2ccc(C)cc2)CC1: class 0
- C#CCN1CCC(CCc2ccc(C(F)(F)F)cc2)CC1: class 1
- C#CCN1CCC(/C=C/c2ccc(OC)cc2)CC1: class 0
- C#CCN1CCC(CCc2ccc(F)cc2)CC1: class 2
- C#CCN1CCC(/C=C/c2ccc(C(F)(F)F)cc2)CC1: class 1
- C#CCN1CCCC(CCc2ccc(F)cc2)C1 (racemic): class 2

----------
Test: Apparent permeability across eliminatory direction in Sprague-Dawley rat ileum at 50 uM measured after 20 mins LC-MS/MS analysis
Assay type: ADME, tissue-based
MEASUREMENT KIND: Papp at 20 min, 50 µM (×10⁻⁶ cm/s)

* C#CCN1CCC(/C=C\c2cccc(F)c2)CC1.Cl | 35.4
